Here the recorded CC50 at 24 h is given for each entry.
# Experiment notes: in vitro
# Test context: rat, gh3-tre-luc cells, AC50 (uM) modified / 1000

Observe how each entry below is paired with its result.
Molecule	CC50 at 24 h
CCCCOCCOCCOCCCC [Diethylene glycol dibutyl ether]	> 90 µM
Cc1ccc2ccccc2c1[N+](=O)[O-] [1-Nitro-2-methylnaphthalene]	> 90 µM
CCN(Cc1cccc(S(=O)(=O)O)c1)c1ccc(C(=C2C=CC(=[N+](CC)Cc3cccc(S(=O)(=O)O)c3)C=C2)c2ccc(O)cc2S(=O)(=O)[O-])cc1 [FD&C Green No. 3]	41.3 µM

Prompt line: Return reported CC50 at 24 h; argument: CC(=O)O[C@H]1C[C@H](O[C@H]2[C@@H](O)C[C@H](O[C@H]3[C@@H](O)C[C@H](O[C@H]4CC[C@@]5(C)[C@H](CC[C@@H]6[C@@H]5C[C@@H](O)[C@]5(C)[C@@H](C7=CC(=O)OC7)CC[C@]65O)C4)O[C@@H]3C)O[C@@H]2C)O[C@H](C)[C@H]1O[C@@H]1O[C@H](CO)[C@@H](O)[C@H](O)[C@H]1O [Lanatoside C]
Response line: > 50 µM

Prompt line: Requested read-out: CC50 at 24 h. Entry: CCOC(=O)CCC(=O)O[C@H]1[C@H](O[C@@H]2[C@@H](C)[C@H](O[C@H]3C[C@@](C)(OC)[C@@H](O)[C@H](C)O3)[C@@H](C)C(=O)O[C@H](CC)[C@@](C)(O)[C@H](O)[C@@H](C)C(=O)[C@H](C)C[C@@]2(C)O)O[C@H](C)C[C@@H]1N(C)C [Erythromycin ethylsuccinate]
Response line: > 50 µM

* * *

# Test system: GH3-TRE-Luc cell line
# Test context: read-out: AC50 (uM) modified / 1000; Tox21_110001=Tox21_112412; viability, 1 nM T3 present, 24 h
Measured endpoint: CC50 (µM)
Respond with the bare value in µM.

Prompt line: Which CC50 value is on record for CCN(CC)C(=S)S [Sodium diethyldithiocarbamate] ?
Response line: 1.18

* * *

# Experiment notes: in vitro
# Test context: rat, gh3-tre-luc cells, AC50 (uM) modified / 1000
Entries and their measured CC50 at 24 h follow.
Dear colleague, please return just the value in µM, with no unit written.

> print(dat)
                                   compound  measured.endpoint  value.observed
1  CN(C)c1ccc(C(=C2C=CC(=[N+](C)C)C=C2)c2c(O)c(S(=O)(=O)[O-])cc3cc(S(=O)(=O)O)ccc23)cc1 [Acid green 50]       CC50 at 24 h            30.6

In the following, a different compound is considered.
Prompt line: Dear colleague, I am looking for the recorded CC50 at 24 h of the following compound: COc1ccc2sc(C(=O)Nc3nnn[nH]3)c(OC(C)C)c2c1 [CI-959]
Response line: 6.07

* * *

# Experiment notes: in vitro
# Test context: rat, gh3-tre-luc cells, AC50 (uM) modified / 1000, Tox21_110001=Tox21_300608; viability, 1 nM T3 present, 24 h
Measured endpoint: CC50 at 24 h

Prompt line: Which CC50 at 24 h value is on record for `O=C(O)C(F)(F)C(F)(F)C(F)(F)C(F)(F)C(F)(F)C(F)(F)C(F)(F)C(F)(F)C(F)(F)F` ?
Response line: > 90 µM

* * *

# Experiment notes: in vitro
# Test context: rat, gh3-tre-luc cells, AC50 (uM) modified / 1000, Tox21_110001=Tox21_202811; viability, 1 nM T3 present, 24 h
Structures can show the parent of a compound that is named as a salt.
Measured endpoint: CC50 at 24 h

Prompt line: Entry N#CNC#N [Cyanamide,cyano-,sodium salt] has what CC50 at 24 h?
Response line: > 90 µM

* * *

# Experiment notes: in vitro
# Test context: rat, gh3-tre-luc cells, AC50 (uM) modified / 1000, Tox21_110001=Tox21_301568; viability, 1 nM T3 present, 24 h
Measured endpoint: CC50 at 24 h

Prompt line: Item under review: CCC1COC(Cn2cncn2)(c2ccc(Cl)cc2Cl)O1 (stereo not shown) . Reported CC50 at 24 h?
Response line: > 90 µM

* * *

# Experiment notes: in vitro
# Test context: rat, gh3-tre-luc cells, AC50 (uM) modified / 1000, Tox21_110001=Tox21_200102; viability, 1 nM T3 present, 24 h
Measured endpoint: CC50 at 24 h

Prompt line: Requested field: CC50 at 24 h. Item: BrCCc1ccccc1 [Phenethyl bromide]
Response line: > 90 µM

* * *

# Experiment notes: in vitro
# Test context: rat, gh3-tre-luc cells, AC50 (uM) modified / 1000
Where a name gives a salt, the structure may show the parent alone.
Some molecules, each annotated with its measured CC50 at 24 h.

As a guide, the following entries are already answered.
Molecule	CC50 at 24 h
C[C@]12CC[C@@H]3c4ccc(O)cc4CC[C@H]3[C@@H]1CC[C@@H]2OP(=O)(O)O [Estradiol phosphate]	> 50 µM
CCN(CC)CCOC(=O)C(c1ccccc1)c1ccccc1 [Adiphenine hydrochloride]	43.3 µM
COc1ccc([C@@H]2CC(=O)c3c(O)cc(O[C@@H]4O[C@H](CO[C@@H]5O[C@@H](C)[C@H](O)[C@@H](O)[C@H]5O)[C@@H](O)[C@H](O)[C@H]4O)cc3O2)cc1OC [Methyl hesperidin]	> 90 µM

Prompt line: Recorded CC50 at 24 h for CN(C)CC/C=C1\c2ccccc2CSc2ccccc21 [Dothiepin hydrochloride] , please?
Response line: 6.1 µM

Prompt line: Reported CC50 at 24 h, molecule O=C1CC[C@@H](C(=O)O)N1 [Pidolic acid] : ____
Response line: > 50 µM

* * *

# Experiment notes: in vitro
# Test context: rat, gh3-tre-luc cells, AC50 (uM) modified / 1000, Tox21_110001=Tox21_201433; viability, 1 nM T3 present, 24 h
Measured endpoint: CC50 at 24 h (µM)
Just the number please, in µM, no unit attached.

Prompt line: Entry under review: `O=C(CCl)CCl` . Reported CC50 at 24 h?
Response line: 32.6

* * *

# Experiment notes: in vitro
# Test context: rat, gh3-tre-luc cells, AC50 (uM) modified / 1000, Tox21_110001=Tox21_200724; viability, 1 nM T3 present, 24 h
Measured endpoint: CC50 at 24 h

Prompt line: Which CC50 at 24 h is listed for `ClC(Cl)(Cl)C(Cl)(Cl)Cl` ?
Response line: > 90 µM

* * *

# Test system: GH3-TRE-Luc cell line
# Test context: read-out: AC50 (uM) modified / 1000; Tox21_110001=Tox21_303559; viability, 1 nM T3 present, 24 h
Measured endpoint: CC50 (µM)
# unit: µM | format: bare number

Prompt line: Recall the recorded CC50 for O=C(c1cc(O)c(O)c(O)c1)c1ccc(O)c(O)c1O [Exifone] with GH3-TRE-Luc cell line and state it.
Response line: 62.8

* * *

CC50 at 24 h: recorded values
# Experiment notes: in vitro
# Test context: rat, gh3-tre-luc cells, AC50 (uM) modified / 1000
Structures can show the parent of a compound that is named as a salt.
Numbers only; they are read as µM.

> print(dat)
                                molecule  reading.unit  value.observed
1  C/C=C(/C(=C/C)c1ccc(O)cc1)c1ccc(O)cc1            µM            16.1

Prompt line: Look up CC50 at 24 h for this molecule: `CC(C)=CCC1C(=O)N(c2ccccc2)N(c2ccccc2)C1=O`
Response line: 48.7

Prompt line: // lookup CC50 at 24 h for CN[C@@H]1C[C@@H](c2ccc(Cl)c(Cl)c2)c2ccccc21 [Indatraline hydrochloride]
Response line: 10

* * *

# Experiment notes: in vitro
# Test context: rat, gh3-tre-luc cells, AC50 (uM) modified / 1000
Where a name gives a salt, the structure may show the parent alone.
Measured endpoint: CC50 at 24 h

// worked examples, CC50 at 24 h included
Compound	CC50 at 24 h
Cc1cc(O)no1	> 100 µM
CC(C(=O)O)c1ccc2c(c1)Cc1cccnc1O2 (stereo not drawn)	> 50 µM
C=CCOc1ccc(CC(=O)O)cc1Cl	> 50 µM
CC[C@H](C)[C@H](N)C(=O)O (racemic)	> 50 µM
COc1ccc(C[C@H](C)NC[C@@H](O)c2ccc(O)c(NC=O)c2)cc1 [Formoterol hemifumarate dihydrate]	> 50 µM
N#CCBr	> 100 µM
COc1ccc(S(=O)(=O)N2C(=O)[C@@](c3ccccc3OC)(N3C[C@H](O)C[C@H]3C(=O)N(C)C)c3cc(Cl)ccc32)c(OC)c1	34.9 µM
c1cc(C(c2ccc(OCC3CO3)cc2)c2ccc(OCC3CO3)cc2)ccc1OCC1CO1 (stereo not drawn)	19.4 µM
NCCN	> 90 µM
Cc1nc(C)c(Cl)c(O)c1Cl	> 50 µM

Prompt line: Recorded CC50 at 24 h of O=C(O)/C=C/c1ccc(Cn2ccnc2)cc1 [Ozagrel hydrochloride] , please.
Response line: > 20 µM

Prompt line: What value of CC50 at 24 h has been reported for the following compound? COc1ccc(C2CNC(=O)C2)cc1OC1CCCC1 (stereo not drawn)
Response line: > 20 µM

Prompt line: Given the entry `CCCCCCCCCCCCCCCCCCNC(=O)OC1CCN(C(=O)OC[C@H](COC(=O)N(Cc2cccc[n+]2CC)C(=O)c2ccccc2OC)OC)CC1` , report its measured CC50 at 24 h.
Response line: 13.6 µM
